For each record, write down the corresponding inhibition.
# experimental-target: Voltage-dependent T-type calcium channel subunit alpha-1H (Homo sapiens) (UniProt O95180)
# Sequence (O95180 whole entry): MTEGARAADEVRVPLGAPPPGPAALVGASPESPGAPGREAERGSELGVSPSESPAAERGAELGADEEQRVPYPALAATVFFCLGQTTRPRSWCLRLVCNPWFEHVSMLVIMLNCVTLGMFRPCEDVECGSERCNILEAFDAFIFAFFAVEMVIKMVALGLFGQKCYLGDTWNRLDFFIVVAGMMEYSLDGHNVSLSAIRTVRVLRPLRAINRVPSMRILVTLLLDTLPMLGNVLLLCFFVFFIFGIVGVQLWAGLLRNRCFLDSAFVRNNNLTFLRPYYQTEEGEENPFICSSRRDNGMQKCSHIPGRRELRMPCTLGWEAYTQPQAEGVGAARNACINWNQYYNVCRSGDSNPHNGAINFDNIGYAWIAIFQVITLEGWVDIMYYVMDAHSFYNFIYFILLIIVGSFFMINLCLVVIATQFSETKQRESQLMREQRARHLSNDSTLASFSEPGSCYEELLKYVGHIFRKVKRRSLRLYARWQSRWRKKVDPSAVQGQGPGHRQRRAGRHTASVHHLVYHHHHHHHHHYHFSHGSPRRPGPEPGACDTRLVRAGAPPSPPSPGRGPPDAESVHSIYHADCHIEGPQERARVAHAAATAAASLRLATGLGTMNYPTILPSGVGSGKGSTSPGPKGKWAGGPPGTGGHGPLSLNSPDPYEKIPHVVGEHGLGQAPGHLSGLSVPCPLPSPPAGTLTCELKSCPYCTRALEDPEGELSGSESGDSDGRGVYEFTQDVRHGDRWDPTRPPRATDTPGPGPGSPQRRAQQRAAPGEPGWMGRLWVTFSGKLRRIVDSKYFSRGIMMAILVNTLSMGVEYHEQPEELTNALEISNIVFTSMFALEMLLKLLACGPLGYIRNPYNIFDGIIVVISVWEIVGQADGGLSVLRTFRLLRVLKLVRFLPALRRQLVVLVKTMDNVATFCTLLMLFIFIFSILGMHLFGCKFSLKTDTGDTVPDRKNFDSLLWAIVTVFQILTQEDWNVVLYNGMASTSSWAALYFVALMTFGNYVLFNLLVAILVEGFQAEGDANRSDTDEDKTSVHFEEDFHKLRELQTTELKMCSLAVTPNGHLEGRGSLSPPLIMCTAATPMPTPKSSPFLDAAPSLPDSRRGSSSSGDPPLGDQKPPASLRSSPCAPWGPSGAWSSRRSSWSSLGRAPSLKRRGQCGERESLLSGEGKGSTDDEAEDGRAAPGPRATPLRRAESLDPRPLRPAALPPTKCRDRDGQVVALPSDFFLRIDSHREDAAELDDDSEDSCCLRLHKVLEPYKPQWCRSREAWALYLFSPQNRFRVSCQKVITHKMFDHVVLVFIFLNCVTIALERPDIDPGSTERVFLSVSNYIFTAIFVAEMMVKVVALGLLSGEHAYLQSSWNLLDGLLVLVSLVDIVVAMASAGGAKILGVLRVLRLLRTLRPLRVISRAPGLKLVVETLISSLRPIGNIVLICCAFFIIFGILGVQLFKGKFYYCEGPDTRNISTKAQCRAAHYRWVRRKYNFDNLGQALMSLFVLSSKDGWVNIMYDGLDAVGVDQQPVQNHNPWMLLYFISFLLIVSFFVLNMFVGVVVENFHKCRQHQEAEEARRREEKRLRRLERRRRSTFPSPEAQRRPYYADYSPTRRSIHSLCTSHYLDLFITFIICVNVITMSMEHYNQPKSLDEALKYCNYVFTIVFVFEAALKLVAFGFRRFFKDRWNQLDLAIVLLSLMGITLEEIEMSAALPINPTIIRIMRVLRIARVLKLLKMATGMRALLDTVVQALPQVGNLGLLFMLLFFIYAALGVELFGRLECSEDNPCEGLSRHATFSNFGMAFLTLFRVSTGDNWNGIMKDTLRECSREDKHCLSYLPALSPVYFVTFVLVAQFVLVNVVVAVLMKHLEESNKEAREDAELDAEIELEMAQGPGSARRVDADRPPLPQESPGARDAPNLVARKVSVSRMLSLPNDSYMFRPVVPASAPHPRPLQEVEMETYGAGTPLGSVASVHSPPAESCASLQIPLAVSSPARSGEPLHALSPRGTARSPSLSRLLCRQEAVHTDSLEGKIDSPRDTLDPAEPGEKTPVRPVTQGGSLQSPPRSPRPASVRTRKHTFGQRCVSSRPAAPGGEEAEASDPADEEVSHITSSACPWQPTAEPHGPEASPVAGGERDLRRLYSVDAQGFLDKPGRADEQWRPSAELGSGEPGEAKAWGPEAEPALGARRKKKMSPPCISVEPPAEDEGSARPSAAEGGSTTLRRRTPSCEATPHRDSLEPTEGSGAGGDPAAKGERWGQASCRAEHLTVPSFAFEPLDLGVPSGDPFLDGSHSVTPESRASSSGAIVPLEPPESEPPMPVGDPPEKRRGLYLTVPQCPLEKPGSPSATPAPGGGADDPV
# assay-protocol: In vitro inhibitory effect on alpha-1H T-type [Ca2+] channels expressed in Xenopus oocytes at 100 uM
# Format: functional, cell-based
# conditions-used: Oocyte
Numbers only here, please. The scale is %.

q: Tell me its inhibition given COC(=O)CC1c2ccccc2N=C(N2CCOCC2)N1C(C)C (stereo unspecified) as the entry.
a: 0

q: Tell me its inhibition given COC(=O)CC1c2ccccc2N=C(N2CCCCC2)N1C(C)C (stereo unspecified) as the entry.
a: 8

q: Tell me its inhibition given O=C(CC1c2ccccc2N=C(N2CCOCC2)N1c1ccccc1)OCc1ccccc1 (stereo unspecified) as the entry.
a: 20.9

q: Tell me its inhibition given COCC(=O)O[C@]1(CCN(C)CCCc2nc3ccccc3[nH]2)CCc2cc(F)ccc2[C@@H]1C(C)C as the entry.
a: 86

q: Tell me its inhibition given Nc1ccc(CNC(=O)CC2c3ccccc3N=C(N3CCCCC3)N2c2ccccc2)cc1 (stereo unspecified) as the entry.
a: 66.8

q: Tell me its inhibition given O=C(O)CC1c2ccccc2N=C(c2ccccc2)N1c1ccccc1 (stereo unspecified) as the entry.
a: 7.2

q: Tell me its inhibition given O=C(CC1c2ccccc2N=C(c2ccccc2)N1c1ccccc1)NCc1ccccc1 (stereo unspecified) as the entry.
a: 14.8

q: Tell me its inhibition given COC(=O)CC1c2ccccc2N=C(N2CCCCC2)N1C1CCCCC1 (stereo unspecified) as the entry.
a: 27

q: Tell me its inhibition given COC(=O)CC1c2ccccc2N=C(c2ccccc2)N1c1ccccc1 (stereo unspecified) as the entry.
a: 51.5

q: Tell me its inhibition given COC(=O)CC1c2ccccc2N=C(N2CCOCC2)N1C1CCCCC1 (stereo unspecified) as the entry.
a: 12.2

q: Tell me its inhibition given COC(=O)CC1c2ccccc2N=C(N2CCOCC2)N1c1ccccc1 (stereo unspecified) as the entry.
a: 14
